pIC50: −log10 of the molar value.
Assay read-out pIC50; system under study: UniProt P08170.
Sequence (P08170 whole entry): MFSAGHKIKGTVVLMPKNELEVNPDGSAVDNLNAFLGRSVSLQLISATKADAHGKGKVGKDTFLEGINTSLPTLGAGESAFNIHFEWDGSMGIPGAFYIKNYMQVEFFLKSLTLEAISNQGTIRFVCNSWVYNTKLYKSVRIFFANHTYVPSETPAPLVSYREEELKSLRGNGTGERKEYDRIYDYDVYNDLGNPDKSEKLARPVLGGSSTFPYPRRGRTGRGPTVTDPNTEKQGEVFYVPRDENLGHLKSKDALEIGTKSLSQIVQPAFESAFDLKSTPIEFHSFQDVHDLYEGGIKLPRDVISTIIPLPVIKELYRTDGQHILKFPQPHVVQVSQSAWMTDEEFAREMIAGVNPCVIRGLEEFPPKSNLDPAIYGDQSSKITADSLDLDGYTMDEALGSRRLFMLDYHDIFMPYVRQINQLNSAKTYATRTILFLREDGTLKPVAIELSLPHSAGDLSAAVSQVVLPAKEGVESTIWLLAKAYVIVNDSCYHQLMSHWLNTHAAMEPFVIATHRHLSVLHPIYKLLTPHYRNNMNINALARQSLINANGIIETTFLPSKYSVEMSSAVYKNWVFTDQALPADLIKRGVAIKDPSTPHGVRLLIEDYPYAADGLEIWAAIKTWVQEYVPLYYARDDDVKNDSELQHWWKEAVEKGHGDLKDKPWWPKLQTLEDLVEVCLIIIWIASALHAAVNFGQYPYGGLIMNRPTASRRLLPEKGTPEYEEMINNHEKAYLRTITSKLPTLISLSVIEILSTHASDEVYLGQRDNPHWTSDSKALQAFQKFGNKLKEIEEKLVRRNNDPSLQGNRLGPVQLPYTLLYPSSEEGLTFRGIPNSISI

Observe how each entry below is paired with its result.
Cc1nc(N2CCCCC2)nc(Sc2nnc(Sc3nc(N4CCCCC4)nc(C)c3Br)n2N)c1Br = < 3.30
Cc1nc(N2CCN(c3ccccc3)CC2)nc(Sc2nnc(Sc3nc(N4CCN(c5ccccc5)CC4)nc(C)c3Br)n2N)c1Br = < 3.30
Cc1nc(N2CCN(C)CC2)nc(Sc2nnc(Sc3nc(N4CCN(C)CC4)nc(C)c3Br)n2N)c1Br = 5.05

In the following, a different compound is considered.
Give pIC50 (UniProt P08170) of the following compound: Cc1nc(N2CCCC2)nc(Sc2nnc(Sc3nc(N4CCCC4)nc(C)c3Br)n2N)c1Br
< 3.30
